# tgt: T1, CD70 ECD (Homo sapiens, UniProt P32970)
# T1 sequence (P32970 39-193 limits assumed): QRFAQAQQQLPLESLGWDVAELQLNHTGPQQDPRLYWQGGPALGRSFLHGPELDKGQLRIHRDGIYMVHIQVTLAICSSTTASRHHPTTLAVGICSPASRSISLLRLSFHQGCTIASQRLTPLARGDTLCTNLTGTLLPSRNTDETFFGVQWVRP
# method: Biacore affinity measurement on immobilized CD70 ECD
# Type: binding
# condition: 25° C., CD70 immobilized
# Method: The immobilization of antigen CD70 ECD was performed at 25° C. with HBS-EP as the running buffer. Sensor chip surface of flow cells 1, 4 were activated by freshly mixed 50 mmol/L N-Hydroxy succinimide (NHS) and 200 mmol/L 1-ethyl-3-(3-dimethylaminopropyl) carbodiimide hydrochloride (EDC) for 420s (10 μL/min). Afterwards, CD70 antigen diluted in 10 mmol/L NaAC (pH 4.5) was injected into flow cell 4 to achieve conjugation of the appropriate Response Unit, while flow cell 1 was set as a blank. […]
measurement_label: Rmax (RU)
Number in RU, nothing else.

Reported Rmax (RU) of 1H8: anti-CD70 antibody clone, VH SEQ 5 and VL SEQ 6; scFv and full human IgG1/kappa (antibody, V domains shown) VH: QVQLQESGPGLVKPSETLSLTCTVSGGSVSSDYYYWSWIRQPPGKGLEWLGYIYYSGSTNYNPSLKSRVTISVDTSKNQFSLKLRSVTTADTAVYYCARGDGDFMGVCFDYWGQGTLVTVSS VL: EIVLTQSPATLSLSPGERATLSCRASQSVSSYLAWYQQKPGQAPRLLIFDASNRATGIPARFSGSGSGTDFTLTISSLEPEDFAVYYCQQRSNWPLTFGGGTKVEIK : 38.81

Ref: patent US20250066490A1
